- System: Mycobacterium tuberculosis Erdman (autoluminescent)
- Protocol text: total FIC50 (Loewe) at 50% inhibition, three-drug combination (log2); higher = more antagonistic
- Measurement context: in vitro model: butyrate; time point: constant (~7 days, model-specific)
Assay readout: total FIC50
Provide a numeric answer; units are not to be included.

Compound	total FIC50
CC[C@@H](CO)NCCN[C@@H](CC)CO [ethambutol] + COc1c(N2C[C@@H]3CCCN[C@@H]3C2)c(F)cc2c(=O)c(C(=O)O)cn(C3CC3)c12 [moxifloxacin] + O=[N+]([O-])c1cn2c(n1)OC[C@@H](OCc1ccc(OC(F)(F)F)cc1)C2 [pretomanid]	0.478
COc1nc2ccc(Br)cc2cc1[C@@H](c1ccccc1)[C@@](O)(CCN(C)C)c1cccc2ccccc12 [bedaquiline] + CC(C)/N=c1\cc2n(-c3ccc(Cl)cc3)c3ccccc3nc-2cc1Nc1ccc(Cl)cc1 [clofazimine] + O=[N+]([O-])c1cn2c(n1)OC[C@@H](OCc1ccc(OC(F)(F)F)cc1)C2 [pretomanid]	0.0794

Request: Give total FIC50 for CC(C)/N=c1\cc2n(-c3ccc(Cl)cc3)c3ccccc3nc-2cc1Nc1ccc(Cl)cc1 [clofazimine] + CC[C@@H](CO)NCCN[C@@H](CC)CO [ethambutol] + CC(=O)NC[C@H]1CN(c2ccc(N3CCOCC3)c(F)c2)C(=O)O1 [linezolid]
Response: 0.534

----------
Measured GRinf values are reported for all entries that follow.
- Test system: Mycobacterium tuberculosis Erdman (autoluminescent)
- Protocol text: GRinf, maximum normalised growth rate inhibition (three-drug combination) (unitless (-1 to 1)); higher = less effect (negative = killing)
- Measurement context: in vitro model: valerate; time point: constant (~7 days, model-specific)

Worked examples follow.
Compound	Target under test	GRinf
NNC(=O)c1ccncc1 [isoniazid] + O=[N+]([O-])c1cn2c(n1)OC[C@@H](OCc1ccc(OC(F)(F)F)cc1)C2 [pretomanid] + NC(=O)c1cnccn1 [pyrazinamide]	Mycobacterium tuberculosis Erdman (autoluminescent)	-0.0645
CC(C)/N=c1\cc2n(-c3ccc(Cl)cc3)c3ccccc3nc-2cc1Nc1ccc(Cl)cc1 [clofazimine] + NNC(=O)c1ccncc1 [isoniazid] + CC(=O)NC[C@H]1CN(c2ccc(N3CCOCC3)c(F)c2)C(=O)O1 [linezolid]	Mycobacterium tuberculosis Erdman (autoluminescent)	-0.0388
CC(=O)NC[C@H]1CN(c2ccc(N3CCOCC3)c(F)c2)C(=O)O1 [linezolid] + COc1c(N2C[C@@H]3CCCN[C@@H]3C2)c(F)cc2c(=O)c(C(=O)O)cn(C3CC3)c12 [moxifloxacin] + CO[C@H]1/C=C/O[C@@]2(C)Oc3c(C)c(O)c4c(O)c(c(/C=N/N5CCN(C)CC5)c(O)c4c3C2=O)NC(=O)/C(C)=C\C=C\[C@H](C)[C@H](O)[C@@H](C)[C@@H](O)[C@@H](C)[C@H](OC(C)=O)[C@@H]1C [rifampicin]	Mycobacterium tuberculosis Erdman (autoluminescent)	0.0279
CC[C@@H](CO)NCCN[C@@H](CC)CO [ethambutol] + NNC(=O)c1ccncc1 [isoniazid] + COc1c(N2C[C@@H]3CCCN[C@@H]3C2)c(F)cc2c(=O)c(C(=O)O)cn(C3CC3)c12 [moxifloxacin]	Mycobacterium tuberculosis Erdman (autoluminescent)	-0.0258
CC[C@@H](CO)NCCN[C@@H](CC)CO [ethambutol] + COc1c(N2C[C@@H]3CCCN[C@@H]3C2)c(F)cc2c(=O)c(C(=O)O)cn(C3CC3)c12 [moxifloxacin] + NC(=O)c1cnccn1 [pyrazinamide]	Mycobacterium tuberculosis Erdman (autoluminescent)	-0.169

Request: Supply measured GRinf of CC(C)/N=c1\cc2n(-c3ccc(Cl)cc3)c3ccccc3nc-2cc1Nc1ccc(Cl)cc1 [clofazimine] + CC(=O)NC[C@H]1CN(c2ccc(N3CCOCC3)c(F)c2)C(=O)O1 [linezolid] + CO[C@H]1/C=C/O[C@@]2(C)Oc3c(C)c(O)c4c(O)c(c(/C=N/N5CCN(C6CCCC6)CC5)c(O)c4c3C2=O)NC(=O)/C(C)=C\C=C\[C@H](C)[C@H](O)[C@@H](C)[C@@H](O)[C@@H](C)[C@H](OC(C)=O)[C@@H]1C [rifapentine] in your reply.
Response: -0.112

Request: Quick one: give measured GRinf for COc1nc2ccc(Br)cc2cc1[C@@H](c1ccccc1)[C@@](O)(CCN(C)C)c1cccc2ccccc12 [bedaquiline] + CC(C)/N=c1\cc2n(-c3ccc(Cl)cc3)c3ccccc3nc-2cc1Nc1ccc(Cl)cc1 [clofazimine] + O=[N+]([O-])c1cn2c(n1)OC[C@@H](OCc1ccc(OC(F)(F)F)cc1)C2 [pretomanid]
Response: -0.0979

Request: Quick one: give measured GRinf for COc1nc2ccc(Br)cc2cc1[C@@H](c1ccccc1)[C@@](O)(CCN(C)C)c1cccc2ccccc12 [bedaquiline] + CC[C@@H](CO)NCCN[C@@H](CC)CO [ethambutol] + NC(=O)c1cnccn1 [pyrazinamide]
Response: -0.0908

----------
- System: Mycobacterium tuberculosis Erdman (autoluminescent)
- Protocol text: total FIC90 (Loewe) at 90% inhibition, three-drug combination (log2); higher = more antagonistic
- Measurement context: in vitro model: cholesterol-high 0.2 mM; time point: terminal (~4-5 doublings, model-specific)
// not fulfilled strictly below 0.5 in total FIC90; fulfilled otherwise

# example entries with known answers
Compound	Label
CC(=O)NC[C@H]1CN(c2ccc(N3CCOCC3)c(F)c2)C(=O)O1 [linezolid] + COc1c(N2C[C@@H]3CCCN[C@@H]3C2)c(F)cc2c(=O)c(C(=O)O)cn(C3CC3)c12 [moxifloxacin] + O=[N+]([O-])c1cn2c(n1)OC[C@@H](OCc1ccc(OC(F)(F)F)cc1)C2 [pretomanid]	fulfilled
COc1nc2ccc(Br)cc2cc1[C@@H](c1ccccc1)[C@@](O)(CCN(C)C)c1cccc2ccccc12 [bedaquiline] + NNC(=O)c1ccncc1 [isoniazid] + COc1c(N2C[C@@H]3CCCN[C@@H]3C2)c(F)cc2c(=O)c(C(=O)O)cn(C3CC3)c12 [moxifloxacin]	not fulfilled
NNC(=O)c1ccncc1 [isoniazid] + O=[N+]([O-])c1cn2c(n1)OC[C@@H](OCc1ccc(OC(F)(F)F)cc1)C2 [pretomanid] + NC(=O)c1cnccn1 [pyrazinamide]	fulfilled
CC[C@@H](CO)NCCN[C@@H](CC)CO [ethambutol] + NNC(=O)c1ccncc1 [isoniazid] + CO[C@H]1/C=C/O[C@@]2(C)Oc3c(C)c(O)c4c(O)c(c(/C=N/N5CCN(C6CCCC6)CC5)c(O)c4c3C2=O)NC(=O)/C(C)=C\C=C\[C@H](C)[C@H](O)[C@@H](C)[C@@H](O)[C@@H](C)[C@H](OC(C)=O)[C@@H]1C [rifapentine]	fulfilled
COc1nc2ccc(Br)cc2cc1[C@@H](c1ccccc1)[C@@](O)(CCN(C)C)c1cccc2ccccc12 [bedaquiline] + CC(C)/N=c1\cc2n(-c3ccc(Cl)cc3)c3ccccc3nc-2cc1Nc1ccc(Cl)cc1 [clofazimine] + O=[N+]([O-])c1cn2c(n1)OC[C@@H](OCc1ccc(OC(F)(F)F)cc1)C2 [pretomanid]	not fulfilled

Request: For this compound, is measured total FIC90 0.5 or higher? CC[C@@H](CO)NCCN[C@@H](CC)CO [ethambutol] + NC(=O)c1cnccn1 [pyrazinamide] + CO[C@H]1/C=C/O[C@@]2(C)Oc3c(C)c(O)c4c(O)c(c(/C=N/N5CCN(C6CCCC6)CC5)c(O)c4c3C2=O)NC(=O)/C(C)=C\C=C\[C@H](C)[C@H](O)[C@@H](C)[C@@H](O)[C@@H](C)[C@H](OC(C)=O)[C@@H]1C [rifapentine]
Response: fulfilled

----------
- Test system: Mycobacterium tuberculosis Erdman (autoluminescent)
- Protocol text: GRinf, maximum normalised growth rate inhibition (unitless (-1 to 1)); higher = less effect (negative = killing)
- Measurement context: in vitro model: acidic pH 5.7; time point: terminal (~4-5 doublings, model-specific)
Listed next: entries and their corresponding GRinf.

Request: For the compound CC(=O)NC[C@H]1CN(c2ccc(N3CCOCC3)c(F)c2)C(=O)O1 [linezolid] + CO[C@H]1/C=C/O[C@@]2(C)Oc3c(C)c(O)c4c(O)c(c(/C=N/N5CCN(C6CCCC6)CC5)c(O)c4c3C2=O)NC(=O)/C(C)=C\C=C\[C@H](C)[C@H](O)[C@@H](C)[C@@H](O)[C@@H](C)[C@H](OC(C)=O)[C@@H]1C [rifapentine] , give its measured GRinf value.
Response: -0.205

Request: Output GRinf of CC[C@@H](CO)NCCN[C@@H](CC)CO [ethambutol] + NC(=O)c1cnccn1 [pyrazinamide]
Response: -0.281

Request: Provide one value: measured GRinf of CC(C)/N=c1\cc2n(-c3ccc(Cl)cc3)c3ccccc3nc-2cc1Nc1ccc(Cl)cc1 [clofazimine] + CO[C@H]1/C=C/O[C@@]2(C)Oc3c(C)c(O)c4c(O)c(c(/C=N/N5CCN(C6CCCC6)CC5)c(O)c4c3C2=O)NC(=O)/C(C)=C\C=C\[C@H](C)[C@H](O)[C@@H](C)[C@@H](O)[C@@H](C)[C@H](OC(C)=O)[C@@H]1C [rifapentine]
Response: -0.304
